Assay: in vitro
Conditions: rat, gh3-tre-luc cells, AC50 (uM) modified / 1000, Tox21_110001=Tox21_301856; viability, 1 nM T3 present, 24 h
recordedEndpoint: CC50 at 24 h (µM)
One number for each entry, in µM.

Would you kindly share the measured CC50 at 24 h for ClC1=C(Cl)C2(Cl)C(CBr)CC1(Cl)C2(Cl)Cl (stereo not shown) ?
36.9

* * *

Would you mind telling me the reported CC50 at 24 h of each entry?
Test: in vitro
Conditions: rat, gh3-tre-luc cells, AC50 (uM) modified / 1000
Structures can show the parent of a compound that is named as a salt.

For each of the compounds below, state CC50 at 24 h.
1. C=C[C@]1(C)C[C@@H](OC(=O)CO)[C@]2(C)[C@H](C)CC[C@]3(CCC(=O)[C@H]32)[C@@H](C)[C@@H]1O [Pleuromutilin]
2. CO[C@@]1(NC(=O)Cc2cccs2)C(=O)N2C(C(=O)O)=C(COC(N)=O)CS[C@@H]21 [Cefoxitin]
3. CCCCNC(=O)n1c(NC(=O)OC)nc2ccccc21 [Benomyl]
4. Cc1cc(C2CC2)nc(Nc2ccccc2)n1 [Cyprodinil]
5. C[N+](C)(C)CC(=O)O [Betaine monohydrate]
6. COC(=O)[C@]1(C)CCC[C@@]2(C)[C@H]1CC=C1C=C(C(C)C)CC[C@@H]12 [Methyl abietate]
7. N=C(N)c1ccc(OCCCOc2ccc(C(=N)N)cc2)cc1 [Propamidine]

["> 50 µM", "> 50 µM", "> 90 µM", "74.9 µM", "> 90 µM", "42.6 µM", "> 50 µM"]

For each of the compounds below, state CC50 at 24 h.
1. CC(C)Nc1ccc(NC(C)C)c2c1C(=O)c1ccccc1C2=O [1,4-Bis(N-isopropylamino)anthraquinone]
2. CC(CN(C)C)CN1c2ccccc2CCc2ccccc21 (stereo not drawn) [Trimipramine maleate]

["> 50 µM", "4.77 µM"]
